# System: HOP-92 NSCLC
# assay explanation: NCI tumour cell line growth inhibition, 48 h
Listed here are compounds together with their documented TGI.

Some solved entries appear below for comparison.
- COc1cc(/C=N/NC(=O)c2cnn3c2NC(c2ccccc2)C3)ccc1OC1CCCC1 (centres undefined): 3.69 µM
- O=C1NC(O)c2cc3ccccc3cc2O1 (centres undefined): 90.7 µM
- CN(C)CCC(=O)Nc1ccc(-n2cc(-c3cccc(NC(=S)Nc4cccc(-c5cn(-c6ccc(NC(=O)CCN(C)C)cc6)nn5)c4)c3)nn2)cc1: 53.9 µM

Could you now consider this next compound?
Which TGI value is on record for Cc1cccc(C)c1NC(=O)C(=O)Cc1nc2ccccc2s1 ? > 100 µM

---

# Tested on: CAKI-1 renal
# assay explanation: NCI tumour cell line growth inhibition, 48 h
metric: TGI

- CCOc1ccc(NC(=O)/C(CC(=O)c2c[n+](=O)c3ccccc3n2[O-])=N\OCCCc2ccccc2)cc1: > 100 µM
- CCC1(c2ccc(N3C(=O)c4cccc5cc([N+](=O)[O-])cc(c45)C3=O)cc2)CCC(=O)NC1=O (centres undefined): 50.9 µM
- COC(=O)C1C=CCC2CCCCC21N1CCCC1 (centres undefined): > 100 µM

Which TGI value is on record for CC(C)C[C@@H](N)[C@@H](O)C(=O)N[C@H](C(=O)N[C@H](C(=O)N[C@@H](CC(=O)O)C(=O)O)C(C)C)C(C)C ? > 20 µM

---

# Test system: HCT-116 colon
# assay explanation: NCI tumour cell line growth inhibition, 48 h
metric: TGI

- Oc1ccc(C(O)C2CCCCN2)cc1O (stereo not given): > 100 µM
- Cn1c(=O)c2c(nc3[nH]c(=O)c(Br)cn32)n(C)c1=O: > 100 µM
- CCOC(=O)c1c(N)sc2c1C(C(=O)OCC)CCCC2 (stereo not given): > 100 µM
- CC1=NN(C(=O)CC(=O)Nc2cccc(C)c2)C(=O)C1N=Nc1ccc(S(=O)(=O)CCOS(=O)(=O)O)cc1 (stereo not given): 12.6 µM
- CC(C)(CO[C@H]1C[C@H]2CC[C@@]1(C)C2(C)C)[N+](=O)[O-]: 29.1 µM

Which TGI value is on record for C=C(Br)CN=CN(C)C ? > 100 µM

Which TGI value is on record for COC(=O)C1=C(CCCCO[Si](C)(C)C(C)(C)C)NC(=O)N2[C@H](CCOCc3ccccc3)CC[C@@H]12 ? > 100 µM

Which TGI value is on record for O=C1[C@@H]2[C@@H](CN3CN(c4ccccc4)N=C(c4ccccc4)[C@@]23c2ccccc2)C(=O)N1c1ccccc1 ? 31.8 µM

Which TGI value is on record for CC1=C(C)C(=O)C(C2=CC(=O)c3ccccc3C2=O)=C(C2=CC(=O)c3ccccc3C2=O)C1=O ? > 100 µM

Which TGI value is on record for CCc1nc(N)c2nc(-c3cccs3)oc2n1 ? > 100 µM

Which TGI value is on record for COc1ccc(-c2ccc(C3CC(c4ccccc4)=NN3)o2)c([N+](=O)[O-])c1 (stereo not given) ? > 100 µM

---

# Tested on: SK-MEL-5 melanoma
# assay explanation: NCI tumour cell line growth inhibition, 48 h
metric: GI50

- O=C1c2cccc3cccc(c23)C(=O)N1CCCCCN1CCN(CCN=c2cc3n(-c4ccc(Cl)cc4)c4ccccc4nc-3cc2Nc2ccc(Cl)cc2)CC1: 7460 nM
- CCCCNC(c1ccc(Cl)cc1)C(O)c1ccc(Cl)cc1 (stereo not given): 1730 nM
- O=C1NC(=NCCc2ccc(Cl)cc2)S/C1=C\c1ccc2ncccc2c1: 15800 nM
- COc1ccc2c(c1)C(=O)c1c-2c(OCCCN(C)C)nc2cc(Br)ccc12: 15000 nM
- O=C1c2cc3c(cc2-c2c1c1cc(F)c(F)cc1c(=O)n2CCCn1ccnc1)OCO3: 20 nM

Which GI50 value is on record for C[C@@]1(F)[C@H](O)[C@@H](CO)O[C@H]1n1ccc(=O)[nH]c1=O ? > 100000 nM

---

# Tested on: 786-0 renal
# assay explanation: NCI tumour cell line growth inhibition, 48 h
metric: TGI

Some solved entries appear below for comparison.
- CC(C)(CO[C@H]1C[C@H]2CC[C@@]1(C)C2(C)C)[N+](=O)[O-]: 27.9 µM
- Nc1[nH]c(=O)nc2c1ncn2C1OC(CO)C(O)C1O (stereo not given): > 100 µM
- O=c1c(Cc2ccc3c(c2)OCO3)nnc2sc(-c3cc(F)c(Cl)cc3Cl)nn12: > 100 µM
- CN1CCN(C(=O)c2cn(Cc3cncn3Cc3ccc4c(c3)OCO4)cc2-c2cccc3ccccc23)CC1: > 86 µM
- C=C1C(=O)O[C@@H]2/C=C(/C)[C@@H](OC(C)=O)C/C=C(\C)C(O)[C@@H](OC(=O)/C(C)=C\C)C12 (stereo not given in full): 29.7 µM
- N#C/C(=C\c1ccc2[nH]ccc2c1)C(=O)NCCCCNC(=O)/C(C#N)=C/c1ccc2[nH]ccc2c1: > 31.6 µM

Could you now consider this next compound?
Which TGI value is on record for O=C1c2cccc3cccc(c23)C(=O)N1CCCCCN1CCN(CCN=c2cc3n(-c4ccc(Cl)cc4)c4ccccc4nc-3cc2Nc2ccc(Cl)cc2)CC1 ? 30.7 µM

---

# System: U251 CNS
Lab note: assign the record to one of active, inactive

Look over these answered cases.
• O=C(Nc1n[nH]c2cc(-c3cc(F)ccc3F)ccc12)C1CC1 = inactive
• COc1ccc(-c2ccc(C3CC(c4ccccc4)=NN3)o2)c([N+](=O)[O-])c1 (centres undefined) = inactive
• CC1=NN(c2cccc(Cl)c2)C(=O)/C1=C\c1cn(CC(O)CN2CCCCC2)c2ccccc12 (centres undefined) = inactive

Could you now consider this next molecule?
# fetch the recorded call for CN(C)CCC(=O)Nc1ccc(-n2cc(-c3cccc(NC(=S)Nc4cccc(-c5cn(-c6ccc(NC(=O)CCN(C)C)cc6)nn5)c4)c3)nn2)cc1 here inactive

---

Listed here are compounds together with their documented TGI.
# System: MALME-3M melanoma
# assay explanation: NCI tumour cell line growth inhibition, 48 h
API: value field is a number in µM; no unit string.

Some solved entries appear below for comparison.
* CN1CCN(C(=O)c2cn(Cc3cncn3Cc3ccc4c(c3)OCO4)cc2-c2cccc3ccccc23)CC1 | 26.6
* COc1cc2c[n+]3c4c(c2c(OC)c1OC)CCCC4CC3 (centres undefined) | 46.9
* CC(=O)Nc1ccc(C2CC(c3ccc([N+](=O)[O-])cc3)=Nc3ccccc3S2)cc1 (centres undefined) | 35.1

Which TGI value is on record for O=C1CC23CCCCCCCCCCC2(C1)CC(=O)C3 (centres undefined) ? 76.1

Which TGI value is on record for Cn1c(COC(=O)NCCn2ccnc2)nc2c(N3CCOCC3)nc(-c3ccccc3)nc21 ? 2.72

Which TGI value is on record for CC1=C(C)C(=O)C(C2=CC(=O)c3ccccc3C2=O)=C(C2=CC(=O)c3ccccc3C2=O)C1=O ? 4.33

Which TGI value is on record for C1=CC(=P(c2ccccc2)(c2ccccc2)c2ccccc2)C=C1 ? 17.4

Which TGI value is on record for C[n+]1cccc2ccc3cccnc3c21 ? 49.9

Which TGI value is on record for O=C1C(=O)c2c(nc3ccc(C(F)(F)F)cn23)-c2ccccc21 ? 0.295

Which TGI value is on record for NC(=O)[C@H](Cc1ccc(O)cc1)Nc1c(O)c2c(c(O)c1Cl)C(=O)C=CC2=O ? 3.78

---

Listed here are compounds together with their documented TGI.
# Test system: HL-60(TB) leukemia
# assay explanation: NCI tumour cell line growth inhibition, 48 h
API: value field is a number in µM; no unit string.

- Clc1ccc2c(c1)N(CCCN1CCCC13CCCCC3)c1ccccc1S2: 5.18
- CN(CCCCCl)P(=O)(OCc1ccc([N+](=O)[O-])o1)OCC1OC(n2ccc(N)nc2=O)C(O)C1O (stereo not drawn): 31.8
- CC1=NN(c2cccc(Cl)c2)C(=O)/C1=C\c1cn(CC(O)CN2CCCCC2)c2ccccc12 (stereo not drawn): 14.4
- CN1CCN(C(=O)c2cn(Cc3cncn3Cc3ccc4c(c3)OCO4)cc2-c2cccc3ccccc23)CC1: 23.2
- COc1cc2c(/C=C3\C(=O)Nc4ccccc43)c[nH]c2cc1C: 4.45

Which TGI value is on record for Cc1nnc2n1N=C(c1ccccc1)C(c1ccccc1)S2 (stereo not drawn) ? 64.5

Which TGI value is on record for COc1cc(C)c2c(c1)CN1CN2Cc2cc(OC)cc(C)c21 ? 64.2

---

# Tested on: UO-31 renal
# assay explanation: NCI tumour cell line growth inhibition, 48 h
Listed here are compounds together with their documented TGI.

Some solved entries appear below for comparison.
- Cc1cc(=O)[nH]c(NNC(C#N)c2cccc([N+](=O)[O-])c2)n1 (stereo not given): > 100 µM
- O=S(=O)(NC1=NCCN1C(=S)SN1CCn2c1nsc2=S)c1ccc(Cl)cc1: 5.92 µM
- CC(=O)n1[nH]c(=O)n(-c2ccc(Cl)cc2)c1=O: > 100 µM
- COc1cccc2c1C(=O)c1c(O)c3c(c(O)c1C2=O)C[C@@](O)(C(C)=O)CC3OC1CC(OC2CC(N)C(O)C(C)O2)C(O)C(C)O1 (stereo not given in full): > 100 µM
- N=C1CCCC1C(=S)SCCC(N)=O (stereo not given): > 100 µM

Which TGI value is on record for CN1CCN(C2=NC(=O)/C(=C\c3ccc(N(C)C)cc3)S2)CC1 ? > 100 µM

Which TGI value is on record for ClC1=NN=C(c2c[nH]c3ccccc23)CC1NCc1ccccc1 (stereo not given) ? > 100 µM

Which TGI value is on record for O=C(Nc1n[nH]c2cc(-c3cc(F)ccc3F)ccc12)C1CC1 ? > 25 µM

Which TGI value is on record for CN1CCN(C(=O)c2cn(Cc3cncn3Cc3ccc4c(c3)OCO4)cc2-c2cccc3ccccc23)CC1 ? > 100 µM

Which TGI value is on record for C[n+]1cccc2ccc3cccnc3c21 ? > 100 µM
